# assay_notes: qHTS assay for identifying genotoxic compounds that show differential cytotoxicity against isogenic chicken DT40 cell lines with known DNA damage response pathways - Rad54/Ku70 mutant cell line (AID 743015); further: nearly all actives have a fitted effect of over 60% in size
# reported_conditions: DT40 Rad54/Ku70 mutant viability, CellTiter-Glo, 40 h; series mostly up to 66.8 µM
Inconclusive results are not listed. Activity calls are given as the source filed them. The call rests on the fitted dose curve; in most records, active means well fitted cell-killing curve with a large enough effect in the repeat runs; inconclusive means weak or mixed curves; inactive means no such curve, though single readings can be large or run the other way.
Pick one: active, inactive

1. CCCCCCCCCCCCCCCCCC(=O)OCC(O)CO (stereo not given)	inactive
2. CC(C)(C)CC(C)(C)c1ccc(O)c(-n2nc3ccccc3n2)c1	inactive
3. CC(=O)/C=C/C1=C(C)CCCC1(C)C	inactive
4. CCc1cc(C(N)=S)ccn1	inactive
5. CC(O)COc1ccccc1 (stereo not given)	inactive

Could you check what this test reported for O=c1cc[nH]c(=O)[nH]1 ?
inactive

# outcome recorded in this test, key = Cc1c(N(C)C)c(=O)n(-c2ccccc2)n1C
inactive

Can you look up the reported call for C=CC(=O)NC(C)(C)CS(=O)(=O)O for me?
inactive

In this assay, the call recorded for CCCCOCCOCCOC(C)=O was what?
inactive

Any idea what this test logged for CC1=NN(c2ccccc2)C(=O)C1 ?
inactive
